- run description: chemical genetic growth profiling, strain panel (AID 1159580);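 further: tested at 20 µM; growth read once vehicle control cultures reached saturation at 30 °C; 1 = growth at the plate median or of vehicle wells; lower values mean less growth of the strain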
- experimental conditions: S. cerevisiae deletion strains, growth OD, locus YER016W, strain bim1, hits give low values
Hit rate of the full screen: of about 5,500 compounds, about 2,000 (36%) were called active. Another 18% or so got no clear call; they are omitted. This is one part of the list.
# reported normalized growth; entries follow

[
  {
    "compound": "CCOC(=O)OC(C)OC(=O)C1N2C(=O)C(NC(=O)[C@H](N)c3ccccc3)C2SC1(C)C (stereo partly specified)",
    "normalized growth": 0.99
  },
  {
    "compound": "NC(Cc1c[nH]c2ccccc12)C(=O)O (stereo unspecified)",
    "normalized growth": 1.02
  },
  {
    "compound": "CC(C)(Sc1cc(C(C)(C)C)c(O)c(C(C)(C)C)c1)Sc1cc(C(C)(C)C)c(O)c(C(C)(C)C)c1",
    "normalized growth": 1.01
  },
  {
    "compound": "C#C[C@]1(O)CCC2C3CCC4=CC(=O)CC[C@@H]4C3CC[C@@]21CC (stereo partly specified)",
    "normalized growth": 0.993
  },
  {
    "compound": "CCN1C[C@]2(OC(=O)c3ccccc3NC(C)=O)CCC(OC)[C@]34C1[C@H](CC23)[C@@]1(O)CC(OC)[C@H]2CC4C1(O)[C@H]2OC (stereo partly specified)",
    "normalized growth": 0.979
  },
  {
    "compound": "COC(=O)Nc1nc2ccc(Sc3ccccc3)cc2[nH]1",
    "normalized growth": 0.985
  },
  {
    "compound": "Cc1ccnc(NS(=O)(=O)c2ccc(N)cc2)n1",
    "normalized growth": 1.01
  },
  {
    "compound": "COc1c(-c2coc3cc4c(cc3c2=O)CC(OC(C)=O)C(C)(C)O4)ccc2c1C=CC(C)(C)O2 (stereo unspecified)",
    "normalized growth": 1.03
  },
  {
    "compound": "COC(=O)Nc1nc2ccc(C(=O)c3ccccc3)cc2[nH]1",
    "normalized growth": 0.935
  },
  {
    "compound": "C#C[C@]1(OC(C)=O)CCC2C3CCC4=CC(=O)CC[C@@H]4C3CC[C@@]21C (stereo partly specified)",
    "normalized growth": 0.988
  },
  {
    "compound": "Cc1cc(C(C)(C)C)c(O)c(C(C)(C)C)c1",
    "normalized growth": 0.984
  },
  {
    "compound": "N=C(N)SCCN",
    "normalized growth": 1
  },
  {
    "compound": "O=c1ccc2ccc(O)cc2o1",
    "normalized growth": 0.996
  },
  {
    "compound": "Nc1ccccc1C(=O)CC(N)C(=O)O (stereo unspecified)",
    "normalized growth": 0.996
  },
  {
    "compound": "COC(=O)C[C@H]1C(C)(C)C2(O)OC34CC2C(=O)[C@]1(C)C3CC[C@]1(C)C4=CC(=O)O[C@H]1c1ccoc1 (stereo partly specified)",
    "normalized growth": 0.984
  },
  {
    "compound": "CNCc1ccccc1",
    "normalized growth": 1.02
  }
]

----------
- run description: chemical genetic growth profiling, strain panel (AID 1159580);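 further: tested at 20 µM; growth read once vehicle control cultures reached saturation at 30 °C; 1 = growth at the plate median or of vehicle wells; lower values mean less growth of the strain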
- experimental conditions: S. cerevisiae deletion strains, growth OD, locus YHR094C, strain hxt1
Among all 5,500 compounds or so, about 2,000 (36%) were called active. Roughly 18% stayed inconclusive and do not appear here. Rule as the data show it: active = normalized growth mostly below about 0.91 (no sharp cut-off); inconclusive = no clear call, values can overlap the other calls; inactive = mostly above about 0.92. This is one part of the list. Where a SMILES comes first, the peptide text is derived from it. The star is where a group is joined. For = O=C*
Outcomes: active, inactive

[
  {
    "molecule": "OC(CCN1CCCCC1)(c1ccccc1)C1CCCCC1 (stereo unspecified)",
    "class label": "inactive"
  },
  {
    "molecule": "C[C@@H]1OC(O[C@H]2C(O[C@H]3CC[C@@]4(C)C(CC[C@]5(C)C4CC=C4C6CC(C)(C)CC[C@]6(C(=O)O)CC[C@]45C)[C@]3(C)CO)OC[C@H](O)[C@@H]2O)[C@H](O)[C@H](O)[C@H]1O (stereo partly specified)",
    "class label": "active"
  },
  {
    "molecule": "CC1(C)CC[C@]2(C(=O)O)CC[C@]3(C)C(=CCC4[C@@]5(C)CC[C@H](O)[C@@](C)(CO)C5CC[C@]43C)C2C1 (stereo partly specified)",
    "class label": "inactive"
  },
  {
    "molecule": "CNC(=O)O/N=C\\C(C)(C)SC",
    "class label": "inactive"
  },
  {
    "molecule": "O=C1c2c(O)cccc2Cc2cccc(O)c21",
    "class label": "inactive"
  },
  {
    "molecule": "NCCC(=O)N[C@@H](Cc1cnc[nH]1)C(=O)O",
    "class label": "inactive"
  },
  {
    "molecule": "OC(CCN1CCCC1)(c1ccccc1)C1CCCCC1 (stereo unspecified)",
    "class label": "inactive"
  },
  {
    "molecule": "Cc1cc(O)c2c(c1)Cc1cccc(O)c1C2=O",
    "class label": "inactive"
  },
  {
    "molecule": "COC(=O)/C(C)=C\\CC12OC(C)(C)C3CC(C=C4C(=O)c5c(O)c6c(c(CCC(C)(C)Cl)c5OC431)OC1(C)CCC(=C(C)C)C6C1)C2=O (stereo unspecified)",
    "class label": "inactive"
  },
  {
    "molecule": "CSCCC(NC=O)C(=O)NC(Cc1ccccc1)C(=O)O (stereo not drawn) (For-Met-Phe-OH; configuration not given here)",
    "class label": "inactive"
  },
  {
    "molecule": "CNCc1ccccc1",
    "class label": "inactive"
  },
  {
    "molecule": "Nc1ccc(S(=O)(=O)Nc2cnc3ccccc3n2)cc1",
    "class label": "inactive"
  },
  {
    "molecule": "CC1(C)CC[C@]2(C(=O)O)CC[C@]3(C)C(=CCC4[C@@]5(C)CC[C@@H](O)C(C)(C)C5CC[C@]43C)C2C1 (stereo partly specified)",
    "class label": "inactive"
  },
  {
    "molecule": "CC(=O)O[C@@H]1CC[C@@]2(C)C(CC[C@]3(C)C2CC=C2C4CC(C)(C)CC[C@]4(C(=O)O)CC[C@]23C)C1(C)C (stereo partly specified)",
    "class label": "inactive"
  },
  {
    "molecule": "N[C@H](C(=O)O)[C@@H]1CC(Cl)=NO1",
    "class label": "active"
  },
  {
    "molecule": "CC(=O)OC1CC(OC(C)=O)C2(C)C(CC(OC(C)=O)C3(C)C4=CC(=O)OC(=O)C4(C)CCC32)C1(C)C (stereo unspecified)",
    "class label": "inactive"
  }
]
